Catalogue of compounds with associated IC50
Assay system: human ACC2 (Homo sapiens)
Construct: made in house; host or cells: insect cells (baculoviral expression system)
Assay remarks: ACC2 assay, spectrophotometric 384 well assay (NADH-linked, coupled lactate dehydrogenase/pyruvate kinase)
Type: biochemical
Assay setup: ACC2 assay, hACC2 construct lacking 128 N-terminal amino acids, 25° C., 340 nm; read-out: IC50
Only the number, expressed in nM, is required.

CC(=O)N[C@@H](C)c1ccc(C2CCN(c3cc4c(cc3C#N)OCO4)CC2)cc1 = 3400
CC(=O)N[C@@H](C)c1ccc(C2CCN(c3cc(OCc4ccccc4)ncn3)CC2)cc1 = 370
C[C@H](NC(=O)C1CC1)c1ccc(C2CCN(c3ccc(OCC4CC4)cc3)CC2)cc1 = 90

Next up:
For record `CC(=O)N[C@@H](C)c1ccc(C2CCN(c3cnc(OCC4CC4)nc3)CC2)cc1` the listed IC50 is 2500

====

Reported IC50 values follow for various compounds
Assay system: human ACC2 (Homo sapiens, UniProt O00763)
Construct: made in house; host or cells: insect cells (baculoviral expression system)
Sequence (O00763 129-2458 limits assumed): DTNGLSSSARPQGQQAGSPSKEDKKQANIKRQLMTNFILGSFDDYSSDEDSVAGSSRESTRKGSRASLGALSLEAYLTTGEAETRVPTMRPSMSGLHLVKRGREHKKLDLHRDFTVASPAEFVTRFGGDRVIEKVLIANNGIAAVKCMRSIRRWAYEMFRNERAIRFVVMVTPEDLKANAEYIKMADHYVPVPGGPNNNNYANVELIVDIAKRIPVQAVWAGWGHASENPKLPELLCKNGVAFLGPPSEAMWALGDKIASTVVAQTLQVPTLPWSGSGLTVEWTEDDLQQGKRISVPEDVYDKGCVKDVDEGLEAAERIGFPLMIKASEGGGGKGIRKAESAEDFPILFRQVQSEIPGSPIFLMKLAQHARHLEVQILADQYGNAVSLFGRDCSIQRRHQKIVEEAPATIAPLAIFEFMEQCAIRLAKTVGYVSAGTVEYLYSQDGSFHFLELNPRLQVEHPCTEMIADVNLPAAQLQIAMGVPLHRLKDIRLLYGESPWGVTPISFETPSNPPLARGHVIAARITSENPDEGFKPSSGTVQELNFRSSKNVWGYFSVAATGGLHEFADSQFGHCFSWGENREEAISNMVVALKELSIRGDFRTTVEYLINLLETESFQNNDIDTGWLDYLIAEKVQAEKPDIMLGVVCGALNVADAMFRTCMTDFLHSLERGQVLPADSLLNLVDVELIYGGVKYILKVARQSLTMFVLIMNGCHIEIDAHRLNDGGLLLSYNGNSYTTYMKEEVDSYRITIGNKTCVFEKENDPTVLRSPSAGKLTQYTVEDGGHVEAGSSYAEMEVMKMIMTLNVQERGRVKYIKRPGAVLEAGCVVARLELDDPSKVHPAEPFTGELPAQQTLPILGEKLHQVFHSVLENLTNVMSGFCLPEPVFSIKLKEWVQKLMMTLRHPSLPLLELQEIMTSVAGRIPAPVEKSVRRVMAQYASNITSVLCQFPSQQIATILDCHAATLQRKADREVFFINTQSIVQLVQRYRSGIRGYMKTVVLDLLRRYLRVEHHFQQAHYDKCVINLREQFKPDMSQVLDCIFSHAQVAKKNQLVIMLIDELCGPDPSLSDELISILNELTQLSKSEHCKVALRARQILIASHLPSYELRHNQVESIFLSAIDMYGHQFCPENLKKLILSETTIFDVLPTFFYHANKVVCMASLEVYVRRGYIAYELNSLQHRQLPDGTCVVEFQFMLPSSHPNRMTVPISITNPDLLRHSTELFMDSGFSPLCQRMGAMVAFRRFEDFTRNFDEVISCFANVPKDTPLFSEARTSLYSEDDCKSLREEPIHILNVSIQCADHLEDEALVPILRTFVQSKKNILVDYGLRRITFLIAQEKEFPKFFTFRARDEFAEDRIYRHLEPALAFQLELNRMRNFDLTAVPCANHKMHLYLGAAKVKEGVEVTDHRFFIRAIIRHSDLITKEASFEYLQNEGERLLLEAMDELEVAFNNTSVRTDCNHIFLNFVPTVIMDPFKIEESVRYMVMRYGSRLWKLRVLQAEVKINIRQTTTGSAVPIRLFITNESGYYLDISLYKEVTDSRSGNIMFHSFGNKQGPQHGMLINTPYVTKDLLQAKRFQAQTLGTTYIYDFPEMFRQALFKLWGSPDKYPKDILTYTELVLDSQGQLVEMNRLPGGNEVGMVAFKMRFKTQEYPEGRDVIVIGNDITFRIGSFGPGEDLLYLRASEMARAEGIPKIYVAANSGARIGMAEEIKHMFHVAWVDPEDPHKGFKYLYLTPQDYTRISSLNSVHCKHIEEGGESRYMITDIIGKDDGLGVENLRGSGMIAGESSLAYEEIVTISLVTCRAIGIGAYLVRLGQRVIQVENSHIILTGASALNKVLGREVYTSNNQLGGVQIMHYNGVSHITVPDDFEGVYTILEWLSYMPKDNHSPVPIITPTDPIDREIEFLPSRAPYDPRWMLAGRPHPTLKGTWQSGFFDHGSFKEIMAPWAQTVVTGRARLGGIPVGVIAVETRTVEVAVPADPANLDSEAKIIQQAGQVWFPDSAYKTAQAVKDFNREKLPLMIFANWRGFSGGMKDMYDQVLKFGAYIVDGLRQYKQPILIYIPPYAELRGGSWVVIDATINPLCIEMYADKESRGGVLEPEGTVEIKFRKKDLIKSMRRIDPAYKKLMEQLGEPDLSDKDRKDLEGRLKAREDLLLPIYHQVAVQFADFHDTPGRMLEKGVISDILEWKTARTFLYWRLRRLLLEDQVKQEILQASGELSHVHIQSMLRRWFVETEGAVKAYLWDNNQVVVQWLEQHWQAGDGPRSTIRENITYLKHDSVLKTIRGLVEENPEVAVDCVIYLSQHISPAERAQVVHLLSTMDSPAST
Assay remarks: ACC2 assay, spectrophotometric 384 well assay (NADH-linked, coupled lactate dehydrogenase/pyruvate kinase)
Assay type: biochemical
Assay setup: ACC2 assay, hACC2 construct lacking 128 N-terminal amino acids, 25° C., 340 nm; read-out: IC50
Give the number first and the unit second.

Field IC50 (human ACC2 (Homo sapiens, UniProt O00763)), entry `CC(=O)N[C@@H](C)c1ccc(C2CCN(c3ccc(C4CC4)nn3)CC2)cc1` : 7500 nM

Bench note, human ACC2 (Homo sapiens, UniProt O00763): entry `COCCCOc1cccc(N2CCC(c3ccc([C@H](C)NC(C)=O)cc3)CC2)c1` , its IC50 = 210 nM

Case `CC(=O)N[C@@H](C)c1ccc(C2CCN(c3ccc4oc(C)nc4c3)CC2)cc1` , human ACC2 (Homo sapiens, UniProt O00763), IC50 recorded as 970 nM

Here `CC(=O)N[C@@H](C)c1ccc(C2CCN(c3ncc(-c4ccc(C)cc4)cc3F)CC2)cc1` was tested on human ACC2 (Homo sapiens, UniProt O00763), and its IC50 came to 120 nM

====

Assay system: human ACC2 (Homo sapiens, UniProt O00763)
Construct: made in house; host or cells: insect cells (baculoviral expression system)
Assay remarks: ACC2 assay, spectrophotometric 384 well assay (NADH-linked, coupled lactate dehydrogenase/pyruvate kinase)
Format: biochemical
Assay setup: ACC2 assay, hACC2 construct lacking 128 N-terminal amino acids, 25° C., 340 nm; read-out: IC50
Protocol: Spectrophotometric 384 Well Assay Malonyl CoA formation by acetyl CoA carboxylases is stoichometrically linked to the consumption of ATP. ACC2 activity is measured in a NADH-linked kinetic method measuring ADP generated during the ACC reaction using a coupled lactate dehydrogenase/pyruvate kinase reaction. For biological testing, a human ACC2 construct which lacks the 128 amino acids at the N-terminus for increased solubility (nt 385-6966 in Genbank entry AJ575592) is cloned. […]
Readout: IC50 (nM)
# value in nM; strip the unit string

CC(=O)N[C@@H](C)c1ccc(C2CCN(c3ccc(OCC4CCO4)c(C)c3)CC2)cc1 (some centres unmarked) [Example 8.47] = 2600

Looking up CC(=O)N[C@@H](C)c1ccc(C2CCN(c3cccc(C(F)(F)F)n3)CC2)cc1 [Example 4.19] , I found its IC50 recorded as 100

Looking up CCCOc1cnc(N2CCC(c3ccc([C@H](C)NC(=O)N(C)C)cc3)CC2)nc1 [Example 4.306] , I see its IC50 listed as 120

GET /value?item= C[C@H](NC(=O)C1CC1)c1ccc(C2CCN(c3ncc4nc(-c5ccccc5)oc4n3)CC2)cc1 [Example 4.46] &field=IC50 returns 210

The value of IC50 measured for the compound CCOc1ncc(N2CCC(c3ccc([C@H](C)NC(C)=O)cc3)CC2)cn1 [Example 16.1] turned out to be 1400

For record CC(=O)N[C@@H](C)c1ccc(C2CCN(c3ccc4nc(C)n(C)c4c3)CC2)cc1 [Example 1.70] the listed IC50 is 7400

Lookup result for CCOc1ccc(N2CCC(c3ccc([C@H](C)NC(=O)c4cccnc4)cc3)CC2)cc1 [Example 6.31] ; measured IC50: 2800

Reported IC50 of CC(=O)N[C@@H](C)c1ccc(C2CCN(c3cc(OCC4(C#N)CC4)ncn3)CC2)cc1 [Example 11.35] : 710
